Ref: patent US20210403582A1

Target: T1, human LIF protein (human, UniProt P15018 23-202)
T1 construct: Bought recombinant protein (Sino Biological / Yiqiao Shenzhou 14890-HNAH) in most assays; also called recombinant human LIF protein; rhLIF
T1 sequence (P15018 23-202 limits assumed): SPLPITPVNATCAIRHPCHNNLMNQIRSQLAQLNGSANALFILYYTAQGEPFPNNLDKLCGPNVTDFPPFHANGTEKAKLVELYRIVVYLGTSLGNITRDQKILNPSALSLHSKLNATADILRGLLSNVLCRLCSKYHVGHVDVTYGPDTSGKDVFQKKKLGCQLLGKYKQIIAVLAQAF
Test: ELISA, antigen coated 0.5 ug/ml, 293S supernatant non-heated, antibody 1 ug/mL
Protocol: Each well was coated with 100 μL of 0.5 μg/ml antigen and incubate overnight at 4° C., and the plates were washed three times with 300 μL of Wash Buffer. The plates were closed with 200 μL of Closure Buffer (2% bovine serum albumin) for 60 min at room temperature. The plates were washed three times with 300 μL of Wash Buffer. […] The OD 450 value was read by an enzyme marker. […]
Measured ELISA signal of individual entries

>  <binder>
38E HuH2L4 (antibody, human IgG1, kappa, V domains shown, Humanized, human IgG1 / kappa) VH: EVMLVESGGGLVQPGGSLRLSCAASGFIFSSYAMSWVRQAPGTGLEWVATISSGGSNTYSPDTVKGRFTISRDNSKNTLYLQMNSLRAEDTAMYYCARYYGYYFDFWGQGTLLTVSS VL: DIHMTQSPSSLSASVGDRVTITCRASENIYSYLAWYQQKQGKSPQLLVYNAKTLAEGVPSRFSGSGSGTQFTLKINSLQPEDFATYYCQHHYVTPLTFGQGTKLEIKR

>  <ELISA signal>
11800

$$$$
>  <binder>
H1L3 (antibody, human IgG1, kappa, N297A, V domains shown, Humanized, human IgG1 / kappa) VH: EVMLLESGGGLVQPGGSLRLSCAASGFIFSSYAMSWVRQAPGTGLEWVATISSGGSNTYSPDTVKGRFTISRDNSKNTLYLQMNSLRAEDTAVYYCARYYGYYFDFWGQGTLLTVSS VL: DIHMTQSPSSLSASVGDRVTITCRASENIYSYLAWYQQKPGKSPQLLVYNAKTLAEGVPSRFSGSGSGTQFTLTISSLQPEDFATYYCQHHYVTPLTFGQGTKLEIKR

>  <ELISA signal>
11800

$$$$
>  <binder>
H3L3 (antibody, human IgG1, kappa, N297A, V domains shown, Humanized, human IgG1 / kappa) VH: EVMLVESGGGLVQPGGSLRLSCAASGFIFSSYAMSWVRQAPETRLEWVATISSGGSNTYSPDTVKGRFTISRDNSKNTLYLQMNSLRAEDTAMYYCARYYGYYFDFWGQGTLLTVSS VL: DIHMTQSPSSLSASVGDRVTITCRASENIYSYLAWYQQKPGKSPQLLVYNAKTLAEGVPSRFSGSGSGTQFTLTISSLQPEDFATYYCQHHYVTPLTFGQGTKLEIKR

>  <ELISA signal>
11300

$$$$
>  <binder>
38E HuH1L4 (antibody, human IgG1, kappa, N297A, V domains shown, Humanized, human IgG1 / kappa) VH: EVMLLESGGGLVQPGGSLRLSCAASGFIFSSYAMSWVRQAPGTGLEWVATISSGGSNTYSPDTVKGRFTISRDNSKNTLYLQMNSLRAEDTAVYYCARYYGYYFDFWGQGTLLTVSS VL: DIHMTQSPSSLSASVGDRVTITCRASENIYSYLAWYQQKQGKSPQLLVYNAKTLAEGVPSRFSGSGSGTQFTLKINSLQPEDFATYYCQHHYVTPLTFGQGTKLEIKR

>  <ELISA signal>
11900

$$$$
